Target: T1, Human OX40R-IgG1 fusion protein (human, UniProt P43489 29-208)
T1 construct: range 1-208; Purified on protein G; also called OX40-IgG1; OX40-IgG; not shown: constant region of human IgG1 (hinge region, CH2 and CH3), amino acids 98-330 of SWISSPROT Acc; No. P01857
T1 sequence (looked up): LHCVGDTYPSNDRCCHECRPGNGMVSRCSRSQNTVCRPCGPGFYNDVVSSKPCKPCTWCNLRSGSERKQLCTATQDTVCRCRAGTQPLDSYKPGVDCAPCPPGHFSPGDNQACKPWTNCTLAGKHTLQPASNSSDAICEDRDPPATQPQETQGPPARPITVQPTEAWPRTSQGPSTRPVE
Test: fluorescence quenching spectroscopy of OX40R-IgG1 intrinsic fluorescence, non-linear regression
pKd listing for selected binders.
Entry type: numeric. Quantity: pKd, the -log10 of concentration in molar units.

IINCDGFYLISLKGYFSQEVNISLHYQKDEE (Synthetic peptide (Epytop), purity 85-97%) [Peptide P5 (amino acids 94-124 of human OX40L)]    8.10

Kindly review the next binder as well.
Read off the recorded pKd for GYFSQEVNIS (Synthetic peptide (Epytop)) [Peptide P5-1 (amino acids 107-116 of human OX40L)]
7.61

Source: patent US20070009964A1
